Just for reference, the supplement of paper PMC8671470 is where these values come from.

# Test system: BV-173
# test method notes: cell viability (% survival relative to DMSO control, bortezomib = 0%); higher = less cytotoxic
# experimental conditions: 10 nM; 72 h
measured metric: cell viability (%)
Hi! Could you send only the number? It should be in %, unit omitted.

# input Entry Cc1coc2c1C(=O)C(=O)c1c-2ccc2c1CCCC2(C)C has what cell viability?
# output 103

# input Entry O=C(O)c1cc(Cl)cc(Cl)c1O has what cell viability?
# output 86.1

# input Entry C[C@H](NC(=O)c1sccc1OCc1ccc(Cl)cc1)c1ccccc1 has what cell viability?
# output 99.7

# input Entry O=C(NNc1ccccc1)c1ccncc1 has what cell viability?
# output 93.5

# input Entry NC(=O)c1cccc(-c2cccc(OC(=O)NC3CCCCC3)c2)c1 has what cell viability?
# output 104

# input Entry CCCCC/C=C\C/C=C\C/C=C\C/C=C\CCCCN1C(=O)C=CC1=O [N-Arachidonylmaleimide] has what cell viability?
# output 97.7

# input Entry Nc1ccccc1C(=O)C[C@H](N)C(=O)O has what cell viability?
# output 90.1
